assaySystem: ERα (Homo sapiens)
Sequence (P03372 1-595): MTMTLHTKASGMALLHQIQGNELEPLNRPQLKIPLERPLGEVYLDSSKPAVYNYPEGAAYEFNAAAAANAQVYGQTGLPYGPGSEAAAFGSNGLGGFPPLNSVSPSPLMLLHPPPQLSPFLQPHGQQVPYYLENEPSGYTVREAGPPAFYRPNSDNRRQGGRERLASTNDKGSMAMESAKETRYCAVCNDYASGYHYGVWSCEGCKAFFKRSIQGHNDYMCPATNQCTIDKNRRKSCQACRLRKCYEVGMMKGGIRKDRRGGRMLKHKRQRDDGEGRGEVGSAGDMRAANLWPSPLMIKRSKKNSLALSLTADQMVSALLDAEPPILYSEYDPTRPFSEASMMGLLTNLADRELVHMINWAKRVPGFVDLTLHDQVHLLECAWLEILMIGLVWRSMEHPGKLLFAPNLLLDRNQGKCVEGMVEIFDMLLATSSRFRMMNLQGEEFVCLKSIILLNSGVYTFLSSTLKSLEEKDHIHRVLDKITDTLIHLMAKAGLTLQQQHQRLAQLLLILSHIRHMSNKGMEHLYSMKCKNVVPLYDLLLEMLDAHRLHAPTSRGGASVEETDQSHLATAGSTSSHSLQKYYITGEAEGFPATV
assayNotes: Degradation of ERα in MCF-7 cells (immunoblotting, 4 h)
Assay type: cell-based
conditionDescription: 1nM compound
# key: entry, value: Degradation rate (%) of ERα in MCF-7 cells
Quick note: give the figure in %, leave out the unit.

| molecule | resultValue |
| --- | --- |
| C[C@@H]1Cc2c(ccc3[nH]ncc23)C(c2ccc(N3CC4(CCC(N5CCC6(CC5)COc5c6ccc6c5CN(C5CCC(=O)NC5=O)C6=O)CC4)C3)cn2)N1CC(F)(F)F (some centres unmarked) | 24 |
| CNC(=O)[C@@H]1CC(N2CCC3(CC2)COc2c3ccc3c2CN(C2CCC(=O)NC2=O)C3=O)CCN1C1CC2(CCN(c3ccc([C@@H]4c5ccc(O)cc5CC[C@@H]4c4ccccc4)cc3)CC2)C1 (some centres unmarked) | 49 |
| O=C1CCC(N2Cc3c(ccc4c3OCC43CCN(C[C@H]4CC[C@@H](C#Cc5ccc([C@@H]6c7ccc(O)cc7CC[C@@H]6c6ccccc6)cc5)CC4)CC3)C2=O)C(=O)N1 (some centres unmarked) | 10 |
| O=C1CCC(N2Cc3c(ccc4c3OCC43CCN(C4CCN(C(=O)C5CC6(CCN(c7ccc([C@@H]8c9ccc(O)cc9CC[C@@H]8c8ccccc8)cc7)CC6)C5)CC4)CC3)C2=O)C(=O)N1 (some centres unmarked) | 45 |

Now examine the next entry.
Memo: O=C1CCC(N2Cc3cc4c(cc3C2=O)CCC2(CN(C(=O)C3CC5(CCN(c6ccc([C@@H]7c8ccc(O)cc8CC[C@@H]7c7ccccc7)cc6)CC5)C3)C2)O4)C(=O)N1 (some centres unmarked) , reported Degradation rate (%) of ERα in MCF-7 cells: 4
